# STUDY_SYSTEM: T1, Human Siglec-15, His Tag (human Siglec-15 full-length extracellular domain linked with His tag) (human, UniProt Q6ZMC9 20-263)
# T1 construct: Bought from ACROBiosystems; also called Siglec-15 protein; SG5-H52H3
# T1 sequence: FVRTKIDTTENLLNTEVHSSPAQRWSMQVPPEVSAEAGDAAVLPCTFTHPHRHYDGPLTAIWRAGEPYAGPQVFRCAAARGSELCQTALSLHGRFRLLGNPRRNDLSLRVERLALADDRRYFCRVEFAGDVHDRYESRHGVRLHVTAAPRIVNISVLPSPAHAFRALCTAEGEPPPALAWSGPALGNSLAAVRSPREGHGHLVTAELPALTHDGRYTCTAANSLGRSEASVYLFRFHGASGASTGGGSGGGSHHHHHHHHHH
# PROTOCOL_SUMMARY: SPR Biacore 8K, antibody captured by anti-human Fc, Siglec-15 His as analyte
Entries annotated with measured kon
QUANTITY: kon

[[record]]
binder = "21F6C6 chimeric antibody (antibody, human IgG1, V domains shown, also called 21F6C6-mHL) VH: EVMLVESGGGLVKPGGSLKLSCAASGFTFSSYAMSWVRQSPEKRLEWVATISSGGSLIYYPDSVTGRFTISRDNAKSTLYLQMSSLRSEDTAMYYCVRHGYYYGDSTLYYAMDYWGPGTSVTVSS VL: DIVLTQSPASLAVSLGQRATISCKASQSVDYDGDSYMNWYQQKPGQPPKLLIYAASNLESGIPARFSGSGSGTDFTLNIHPVEEEDAATYYCQQSNEAPLTFGAGTKLELK"
result = "3.95e+06 M⁻¹ s⁻¹"

[[record]]
binder = "174C11C9 chimeric antibody (antibody, human IgG1, V domains shown, also called 174C11C9-mHL) VH: EVQLQQSGPVLVKPGASVKMSCEASGYIFTDYYMNWVKQSPGKSLEWIGVFNPYSGGISYNQKFKGKATLTVDTSSSTAYMELNSLTSEDSAVYYCARDYYYLSSHGFYALDYWGQGTSVTVSS VL: DIVLTQSPASLAVSLGQRATISCRASESVDSYGNSFIHWYQQRPGRPPKLLMYRASNLESGIPARFSGSGSRTDFTLTIDPVEADDVATYYCQQSNEDPLTFGAGTKLELK"
result = "1.21e+06 M⁻¹ s⁻¹"

[[record]]
binder = "255C12B10 chimeric antibody (antibody, V domains shown, Mouse variable regions combined with human IgG1 (N297A) constant regions) VH: EVQLQQSGPELVKPGASVKMSCKASGYTFTGYNMNWVKQSHGKSLEWIGYINPNNGGTRYNQKFKGKATLTINKSSSTAYMELRSLTSEDSAVYYCARDYGIDYWGQGTTLTVSS VL: EIQMTQSPSSMSASLGDRITITCQATQDIVKNLNWYQQKPGKPPSFLIYYATELAEGVPSRFSGSGSGSDYSLTISNLESEDFADYYCLQFYEFPYTFGGGTKLEIK"
result = "296000 M⁻¹ s⁻¹"

[[record]]
binder = "124B11F6 chimeric antibody (antibody, human IgG1, V domains shown, also called 124B11F6-mHL) VH: EVQLQQSGAELVRPGASVKLSCTASVFNIKDYYMHWVKQRTEQGLEWIGRIDPEDDKTKYAPKFQGKATITADTSSNTAYLHLSTLTSEDTAVYYCVRGWLGYIMDFWGQGTSVTVSS VL: QLVLTQSSSASFSLGASAKLTCTLSSQHSTYTIDWYQQQPLKPPKYVMELKEDGSHSTGDGIPDRFSGSSSGADRYLGISNIQPEDEAVYICGVGATIKEQFVYVFGGGTKVTVL"
result = "102000 M⁻¹ s⁻¹"

[[record]]
binder = "75E1F2 chimeric antibody (antibody, V domains shown, Mouse variable regions combined with human IgG1 (N297A) constant regions) VH: EVQLVESGGGSVKPGGSLKLSCAASGFTFSDYGMHWVRQAPEKGLEWITYISSGSSIIDYSDTVKGRFTISRDNAKDTLFLQMTSLRSEDTAIYYCVRREDHYAMDYWGQGTSVTVSS VL: DIVMTQSHKFLSTSVGDRVSITCKASQDVYTAVAWFQQKPGQSPKLLFYSASYRFTGVPDRFNGSGSGTDFTLTITSMQAEDLAVYYCQQHYSTPWTFGGGTKLEIK"
result = "841000 M⁻¹ s⁻¹"

